Molecular target: Endothelin receptor, ET-A/ET-B (Homo sapiens) (UniProt P24530+P25101)
Sequence (P24530 whole entry, looked up): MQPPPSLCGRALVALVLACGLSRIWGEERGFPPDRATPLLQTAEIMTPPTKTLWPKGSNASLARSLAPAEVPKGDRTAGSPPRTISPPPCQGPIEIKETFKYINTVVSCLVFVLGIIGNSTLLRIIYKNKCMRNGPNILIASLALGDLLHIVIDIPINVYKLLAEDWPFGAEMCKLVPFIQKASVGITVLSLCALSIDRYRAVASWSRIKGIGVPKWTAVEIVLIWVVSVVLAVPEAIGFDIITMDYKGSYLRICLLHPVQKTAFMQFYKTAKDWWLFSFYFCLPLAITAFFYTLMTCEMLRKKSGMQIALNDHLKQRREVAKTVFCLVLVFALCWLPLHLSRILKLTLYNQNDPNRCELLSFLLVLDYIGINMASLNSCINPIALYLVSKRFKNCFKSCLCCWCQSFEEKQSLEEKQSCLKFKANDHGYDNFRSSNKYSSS
Sequence (P25101 whole entry, looked up): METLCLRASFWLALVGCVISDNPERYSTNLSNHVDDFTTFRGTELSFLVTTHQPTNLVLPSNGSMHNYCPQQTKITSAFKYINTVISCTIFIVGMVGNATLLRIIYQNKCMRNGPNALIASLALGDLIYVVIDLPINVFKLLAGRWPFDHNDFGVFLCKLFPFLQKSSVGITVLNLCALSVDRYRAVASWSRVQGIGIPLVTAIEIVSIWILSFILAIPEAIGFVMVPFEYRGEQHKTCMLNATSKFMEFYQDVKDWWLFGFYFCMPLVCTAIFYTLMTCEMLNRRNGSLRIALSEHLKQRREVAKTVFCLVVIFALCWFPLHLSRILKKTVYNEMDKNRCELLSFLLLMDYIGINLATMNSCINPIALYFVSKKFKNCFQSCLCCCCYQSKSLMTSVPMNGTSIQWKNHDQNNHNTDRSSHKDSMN
Test: Selectivity was calculated as the ratio of IC50 of Endothelin B receptor / IC50 of Endothelin A receptor
Format: protein assay
measured metric: Ratio

// worked examples, Ratio included
| compound | experimental system | Ratio |
| --- | --- | --- |
| COc1ccc([C@@H]2c3nc(CCC(=O)O)ccc3C(c3ccc4c(c3)OCO4)[C@H]2C(=O)O)cc1 (single isomer, unassigned) | Endothelin receptor, ET-A/ET-B (Homo sapiens) (UniProt P24530+P25101) | 3.5 |
| CCCOc1ccc2c(n1)[C@@H](c1ccc(OC)cc1)[C@H](C(=O)O)C2c1ccc2c(c1)OCO2 (single isomer, unassigned) | Endothelin receptor, ET-A/ET-B (Homo sapiens) (UniProt P24530+P25101) | 71 |
| CCCCCc1ccc2c(n1)[C@@H](c1ccc(OC)cc1)[C@H](C(=O)O)[C@H]2c1ccc2c(c1)OCO2 | Endothelin receptor, ET-A/ET-B (Homo sapiens) (UniProt P24530+P25101) | 4.8 |
| CCCCc1ccc2c(n1)[C@@H](c1ccc(OC)cc1)[C@H](C(=O)O)[C@H]2c1ccc2c(c1)OCO2 | Endothelin receptor, ET-A/ET-B (Homo sapiens) (UniProt P24530+P25101) | 52 |
| COc1ccc([C@@H]2c3nc(CCCO)ccc3C(c3ccc4c(c3)OCO4)[C@H]2C(=O)O)cc1 (single isomer, unassigned) | Endothelin receptor, ET-A/ET-B (Homo sapiens) (UniProt P24530+P25101) | 350 |

(A) CCCNc1ccc2c(n1)[C@@H](c1ccc(OC)cc1)[C@H](C(=O)O)C2c1ccc2c(c1)OCO2 (single isomer, unassigned)
(B) COc1ccc([C@@H]2c3ncccc3[C@H](c3ccc4c(c3)OCO4)[C@H]2C(=O)O)cc1
(C) C=CCCc1ccc2c(n1)[C@@H](c1ccc(OC)cc1)[C@H](C(=O)O)[C@H]2c1ccc2c(c1)OCO2
Prompt: Arrange items by their Ratio values in increasing order. Sort the labels as requested; that list is your answer.
Completion: C, B, A

====

Target: Endothelin receptor, ET-A/ET-B (Homo sapiens) (UniProt P24530+P25101)
Test: Selectivity was calculated as the ratio of IC50 of Endothelin B receptor / IC50 of Endothelin A receptor
Type: protein assay
measured metric: Ratio

// worked examples, Ratio included
| compound | measured metric | meas value |
| --- | --- | --- |
| COc1ccc([C@@H]2c3nc(C)ccc3[C@H](c3ccc4c(c3)OCO4)[C@H]2C(=O)O)cc1 | Ratio | 18 |
| COc1ccc([C@@H]2c3nc(N4CCCC4)ccc3C(c3ccc4c(c3)OCO4)[C@H]2C(=O)O)cc1 (single isomer, unassigned) | Ratio | 9.5 |
| CCCSc1ccc2c(n1)[C@@H](c1ccc(OC)cc1)[C@H](C(=O)O)C2c1ccc2c(c1)OCO2 (single isomer, unassigned) | Ratio | 6.5 |

(1) CCc1ccc2c(n1)[C@@H](c1ccc(OC)cc1)[C@H](C(=O)O)[C@H]2c1ccc2c(c1)OCO2
(2) COc1ccc([C@@H]2c3nc(C4CC4)ccc3[C@H](c3ccc4c(c3)OCO4)[C@H]2C(=O)O)cc1
Prompt: Consider entries 1 and 2 . Which has the numerically lower Ratio? Which one? Tell me its label.
Completion: 1
(1: 19, 2: 39)
